# measurement-description: Cytotoxicity against human hFB-hTERT6 cells after 72 hrs by MTT assay
# Format: cell-based
# run-parameters: hFB-hTERT6, 72 h
measure-name: pIC50
Please note pIC50 is a logarithmic value: minus log10 of concentration in mol/L. Answer with that number alone.

Before answering, review these 2 worked examples.
{"compound": "CC[C@@H]1/C=C/C=C/C[C@H](C)[C@H](O)[C@](C)(O)C(=O)[C@H](C)[C@@H](O)[C@H](C)C(=O)[C@H](C)[C@@H](O)[C@H](C)/C=C/C(=O)O[C@H]2[C@@H](C)[C@@H](CC1)O[C@@]1(CC[C@@H](C)[C@@H](C[C@H](C)O)O1)[C@@H]2C [OLIGOMYCIN A]", "pIC50": 5.12}
{"compound": "CC[C@H]1/C=C/C=C/C[C@@H](C)[C@H](O)[C@@](C)(O)C(=O)[C@@H](C)[C@H](O)[C@@H](C)C(=O)[C@@H](C)[C@H](O)[C@@H](C)/C=C/C(=O)O[C@@H]2[C@H](C)[C@H](CC1)O[C@]1(CC[C@H](C)[C@H](C[C@H](C)n3cc(C(=O)OC)nn3)O1)[C@H]2C", "pIC50": 5.70}

I'd like to know its pIC50. The compound in question is "CC[C@H]1/C=C/C=C/C[C@@H](C)[C@H](O)[C@@](C)(O)C(=O)[C@@H](C)[C@H](O)[C@@H](C)C(=O)[C@@H](C)[C@H](O)[C@@H](C)/C=C/C(=O)O[C@@H]2[C@H](C)[C@H](CC1)O[C@]1(CC[C@H](C)[C@H](C[C@H](C)N=[N+]=[N-])O1)[C@H]2C"
5.72

I'd like to know its pIC50. The compound in question is "CC[C@H]1/C=C/C=C/C[C@@H](C)[C@H](O)[C@@](C)(O)C(=O)[C@@H](C)[C@H](O)[C@@H](C)C(=O)[C@@H](C)[C@H](O)[C@@H](C)/C=C/C(=O)O[C@@H]2[C@H](C)[C@H](CC1)O[C@]1(CC[C@H](C)[C@H](C[C@H](C)n3cc(-c4ccccc4)nn3)O1)[C@H]2C"
5.52

I'd like to know its pIC50. The compound in question is "CC[C@H]1/C=C/C=C/C[C@@H](C)[C@H](O)[C@@](C)(O)C(=O)[C@@H](C)[C@H](O)[C@@H](C)C(=O)[C@@H](C)[C@H](O)[C@@H](C)/C=C/C(=O)O[C@@H]2[C@H](C)[C@H](CC1)O[C@]1(CC[C@H](C)[C@H](C[C@H](C)n3cc(C(=O)NCCN(C)C)nn3)O1)[C@H]2C"
5.70
